protocol.description: One hour kinetic solubility in acetic acid/sodium acetate ion mixtures
Assay type: physicochemical
condition.notes: USP buffer with acetic acid/sodium acetate, 25 °C, pH 6.9, aqueous buffer, thermodynamic from solid, pH 6.9; acetic acid/sodium acetate 2.0 M; 25° C.; read-out: Solubility at 1 hr
endpoint.label: solubility at 1 h (mg/mL)
Hi! Could you send only the number? It should be in mg/mL, unit omitted.

Assign solubility at 1 h to the following record: "CC(=O)[O-].CCO/N=C(\C(=O)N[C@@H]1C(=O)N2C(C(=O)O)=C(Sc3nc(-c4cc[n+](C)cc4)cs3)CS[C@H]12)c1nsc(NP(=O)(O)O)n1.O" 225

====

protocol.description: One hour kinetic solubility in acetic acid/sodium acetate ion mixtures
Assay type: physicochemical
condition.notes: USP buffer with acetic acid/sodium acetate, 25 °C, pH 2.9, aqueous buffer, thermodynamic from solid, pH 2.9; acetic acid/sodium acetate 1.0 M; 25° C.; read-out: Solubility at 1 hr
endpoint.label: solubility at 1 h

Assign solubility at 1 h to the following record: "CC(=O)[O-].CCO/N=C(\C(=O)N[C@@H]1C(=O)N2C(C(=O)O)=C(Sc3nc(-c4cc[n+](C)cc4)cs3)CS[C@H]12)c1nsc(NP(=O)(O)O)n1.O" 213 mg/mL

====

protocol.description: One hour kinetic solubility in L-arginine mixtures
Format: physicochemical
condition.notes: USP buffer with L-arginine, 25 °C, aqueous buffer, thermodynamic from solid, L-arginine 0.5 M; 25° C.; read-out: Solubility at 1 hr
endpoint.label: solubility at 1 h (mg/mL)
Hi! Could you send only the number? It should be in mg/mL, unit omitted.

Assign solubility at 1 h to the following record: CC(=O)[O-].CCO/N=C(\C(=O)N[C@@H]1C(=O)N2C(C(=O)O)=C(Sc3nc(-c4cc[n+](C)cc4)cs3)CS[C@H]12)c1nsc(NP(=O)(O)O)n1.O [ceftaroline fosamil] 226

====

protocol.description: pH solubility profile: one hour and three hour kinetic solubility in USP buffers at 0.05 M
Format: physicochemical
condition.notes: aqueous buffer, thermodynamic from solid; pH 9.0; USP buffer 0.05 M; 25° C.
endpoint.label: solubility at 1 h (mg/mL)
Hi! Could you send only the number? It should be in mg/mL, unit omitted.

Assign solubility at 1 h to the following record: CC(=O)[O-].CCO/N=C(\C(=O)N[C@@H]1C(=O)N2C(C(=O)O)=C(Sc3nc(-c4cc[n+](C)cc4)cs3)CS[C@H]12)c1nsc(NP(=O)(O)O)n1.O [ceftaroline fosamil] 16

====

protocol.description: One hour kinetic solubility in acetic acid/sodium acetate ion mixtures
Assay type: physicochemical
condition.notes: USP buffer with acetic acid/sodium acetate, 25 °C, pH 4.2, aqueous buffer, thermodynamic from solid, pH 4.2; acetic acid/sodium acetate 0.5 M; 25° C.; read-out: Solubility at 1 hr
endpoint.label: solubility at 1 h (mg/mL)
Hi! Could you send only the number? It should be in mg/mL, unit omitted.

Assign solubility at 1 h to the following record: "CC(=O)[O-].CCO/N=C(\C(=O)N[C@@H]1C(=O)N2C(C(=O)O)=C(Sc3nc(-c4cc[n+](C)cc4)cs3)CS[C@H]12)c1nsc(NP(=O)(O)O)n1.O" 158

====

protocol.description: Linear calculated pharmacokinetic parameters following single dose IM injection
Type: in vivo, human
condition.notes: human, in vivo, im, 891 mg
endpoint.label: AUC(0-inf) (ng·h/mL)
Hi! Could you send only the number? It should be in ng·h/mL, unit omitted.

Assign AUC(0-inf) to the following record: "CCO/N=C(\C(=O)N[C@@H]1C(=O)N2C(C(=O)[O-])=C(Sc3nc(-c4cc[n+](C)cc4)cs3)CS[C@H]12)c1nsc(N)n1" 81800
